# ASSAYED SYSTEM: cGMP-dependent protein kinase 1 (Homo sapiens);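 note: listed percent inhibition of PRKG1 is a mean value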
# Sequence (whole entry): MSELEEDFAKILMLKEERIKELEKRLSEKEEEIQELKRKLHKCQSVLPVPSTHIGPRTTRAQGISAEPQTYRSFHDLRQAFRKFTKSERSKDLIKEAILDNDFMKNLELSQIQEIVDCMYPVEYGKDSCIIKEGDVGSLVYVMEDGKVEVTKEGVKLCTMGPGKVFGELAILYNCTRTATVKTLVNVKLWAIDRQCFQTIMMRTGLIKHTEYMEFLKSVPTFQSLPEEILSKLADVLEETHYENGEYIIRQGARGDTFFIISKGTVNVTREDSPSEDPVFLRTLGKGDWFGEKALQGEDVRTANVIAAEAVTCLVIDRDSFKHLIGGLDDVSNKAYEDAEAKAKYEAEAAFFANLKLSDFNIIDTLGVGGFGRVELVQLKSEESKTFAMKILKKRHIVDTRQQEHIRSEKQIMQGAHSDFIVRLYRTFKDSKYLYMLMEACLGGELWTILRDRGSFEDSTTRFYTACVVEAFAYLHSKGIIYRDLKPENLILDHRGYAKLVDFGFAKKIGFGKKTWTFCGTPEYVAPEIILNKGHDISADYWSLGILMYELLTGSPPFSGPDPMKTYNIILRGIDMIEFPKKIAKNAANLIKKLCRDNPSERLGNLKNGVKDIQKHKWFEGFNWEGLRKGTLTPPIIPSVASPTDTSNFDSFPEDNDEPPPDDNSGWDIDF
# ASSAY CONTEXT: at 1 µM
REPORTED ENDPOINT: inhibition

Some solved entries appear below for comparison.
# MOLECULE, ASSAYED SYSTEM, inhibition
data = [
    ("Cc1ccc(NC(=O)c2ccnc(N3CCCC3)c2)cc1-c1ccc(C(=O)NCC2CC2)cc1", "cGMP-dependent protein kinase 1 (Homo sapiens)", "6.39%"),
    ("NS(=O)(=O)c1ccc(N/N=C2\\C(=O)Nc3ccc(C(=O)NCCc4c[nH]cn4)cc32)cc1", "cGMP-dependent protein kinase 1 (Homo sapiens)", "70.1%"),
    ("O=C(Nc1n[nH]c2nc(-c3ccco3)c(Br)cc12)C1CC1", "cGMP-dependent protein kinase 1 (Homo sapiens)", "3.36%"),
    ("COc1ccc2cc(-c3c(-c4ccncc4)nc(-c4ccc([S+](C)[O-])cc4)n3C)ccc2c1 (stereo unspecified)", "cGMP-dependent protein kinase 1 (Homo sapiens)", "4.18%"),
    ("CCCN1CCC(Oc2cc(Nc3nc(Nc4cccc(F)c4C(N)=O)c4cc[nH]c4n3)c(OC)cc2Cl)CC1", "cGMP-dependent protein kinase 1 (Homo sapiens)", "3.67%"),
    ("CN1CCC(C(=O)Nc2n[nH]c3nnc(-c4ccccc4)cc23)CC1", "cGMP-dependent protein kinase 1 (Homo sapiens)", "5.14%"),
    ("CCn1c(-c2nonc2N)nc2cnc(Oc3cccc(NC(=O)c4ccc(OCCN5CCOCC5)cc4)c3)cc21", "cGMP-dependent protein kinase 1 (Homo sapiens)", "76.6%"),
    ("Nc1ncnc2occ(-c3ccc(NC(=O)Nc4cc(C(F)(F)F)cc(C(F)(F)F)c4)cc3)c12", "cGMP-dependent protein kinase 1 (Homo sapiens)", "1.54%"),
    ("COc1ccc(-c2coc3ncnc(N)c23)cc1", "cGMP-dependent protein kinase 1 (Homo sapiens)", "3.68%"),
    ("COc1ccc(-c2nn3ncccc3c2-c2ccnc(Nc3ccc(Cl)c(C(F)(F)F)c3)n2)cc1", "cGMP-dependent protein kinase 1 (Homo sapiens)", "0.97%"),
]

Turning now to a further molecule:
Inquiry: State the recorded inhibition for this entry: `N#Cc1c(NC(=O)c2cccc3ccccc23)sc2c1CCCC2`
Reply text: 3.28%

====

Each record here notes measured inhibition.
# ASSAYED SYSTEM: Serine/threonine-protein kinase D3 (Homo sapiens);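 note: each value is the mean of inhibition readings, from a kinase profiling panel run on the GSK PKIS inhibitor collection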
# ASSAY CONTEXT: at 0.1 µM
Provide only the numeric value, understood in %.

# COMPOUND, ASSAYED SYSTEM, inhibition, %
rows = [
    ("COC(=O)Nc1nc2cc(Oc3cccc(NC(=O)Nc4cc(C(F)(F)F)ccc4F)c3)ccc2[nH]1", "Serine/threonine-protein kinase D3 (Homo sapiens)", 0.2),
    ("COc1cc(C=NNc2ncnc3c2cnn3-c2ccccc2)ccc1O", "Serine/threonine-protein kinase D3 (Homo sapiens)", 2.52),
    ("CS(=O)(=O)CCN(CC#N)Cc1ccc(-c2ccc3ncnc(Nc4ccc(OCc5cccc(F)c5)c(Cl)c4)c3c2)o1", "Serine/threonine-protein kinase D3 (Homo sapiens)", -2.15),
    ("COc1cc2ncn(-c3cc(O[C@@H](C)c4ccccc4Cl)c(C(N)=O)s3)c2cc1OC", "Serine/threonine-protein kinase D3 (Homo sapiens)", 4.96),
    ("CS(=O)(=O)CCNCc1nc(-c2ccc3ncnc(Nc4ccc(F)c(Cl)c4)c3c2)cs1", "Serine/threonine-protein kinase D3 (Homo sapiens)", 1.23),
]

Inquiry: Can you look up the measured inhibition of `c1cnn2ncc(-c3ccnc(Nc4ccc5c(c4)OCCO5)n3)c2c1` for me?
Reply text: 7.82

Inquiry: Query: inhibition; subject: `COc1ccccc1Nc1ncc(-c2ccccc2)o1`
Reply text: 4.57

Inquiry: Using the record for `CNC(=O)c1cncc(/C=C/c2c(Cl)cccc2Cl)c1` , report its inhibition.
Reply text: 1.19

Inquiry: Entry under review: `Cc1cccc(-c2n[nH]cc2-c2ccc3ncccc3n2)n1` . Reported inhibition?
Reply text: 2.2

Inquiry: For the compound `NS(=O)(=O)c1cccc(-c2ccc3c(NC(=O)C4CC4)n[nH]c3c2)c1` , what inhibition is on record?
Reply text: -0.43

Inquiry: Item under review: `NCc1ccc(-c2nc(-c3ccc(Cl)c(O)c3)c(-c3ccncc3)[nH]2)cc1` . Reported inhibition?
Reply text: 0.72

Inquiry: # input compound: CC1=C(C(=O)Nc2ccc3[nH]ncc3c2)C(c2ccc(Cl)c(Cl)c2)CC(=O)N1 (centres undefined) ; wanted: its inhibition
Reply text: 1.11

Inquiry: Look up inhibition: `N#Cc1c(NC(=O)c2cccc3ccccc23)sc2c1CCCC2`
Reply text: 4.61

Inquiry: Quick check: inhibition of `CCc1cccc(NC(=O)Nc2ccc(Oc3ccc4nc(NC(=O)OC)[nH]c4c3)cc2)c1` ?
Reply text: 1.72

Inquiry: Which inhibition is listed for `O=C1NC(=O)C(c2ccc(Cl)cc2)=C1Nc1ccc(Cl)c(C(=O)O)c1` ?
Reply text: -1.37

Inquiry: Given the entry `CCn1c(-c2nonc2N)nc2cnc(Oc3cccc(NC(=O)c4ccc(OCCN5CCOCC5)cc4)c3)cc21` , report its measured inhibition.
Reply text: 2.2

Inquiry: Could you tell me which inhibition is on file for `COc1ccc(COc2ccc(Cc3cnc(N)nc3N)cc2OC)cc1` ?
Reply text: 0.01

Inquiry: Recorded inhibition for `CN1CCC(C(=O)Nc2n[nH]c3nnc(-c4ccccc4)cc23)CC1` , please?
Reply text: 4.65

Inquiry: What does the data say about its inhibition? Entry: `O=C1NC(=O)C(c2cccc(Cl)c2)=C1Nc1ccc(O)c(Cl)c1`
Reply text: 0.75

Inquiry: Bench note: what inhibition did `CCn1c(-c2nonc2N)nc2c(C#CC(C)(C)O)nc(OC[C@@H](N)c3ccccc3)cc21` show?
Reply text: -0.8

Inquiry: Record request: inhibition value, item `COc1cc2ncn(-c3cc(OCc4ccccc4C(F)(F)F)c(C(N)=O)s3)c2cc1OC`
Reply text: 0.67

Inquiry: Given the entry `O=C1NC(=O)C(N2CCc3ccccc32)=C1c1ccc(Cl)cc1` , report its measured inhibition.
Reply text: 5.53

Inquiry: Sample `NC(=O)c1ccc(-c2nc(-c3ccccn3)c(-c3ccc4c(c3)OCO4)[nH]2)cc1` — what was its inhibition?
Reply text: 2.14

====

# ASSAYED SYSTEM: Rho-associated protein kinase 2 (Homo sapiens) (UniProt O75116)
# Sequence (O75116 whole entry, looked up): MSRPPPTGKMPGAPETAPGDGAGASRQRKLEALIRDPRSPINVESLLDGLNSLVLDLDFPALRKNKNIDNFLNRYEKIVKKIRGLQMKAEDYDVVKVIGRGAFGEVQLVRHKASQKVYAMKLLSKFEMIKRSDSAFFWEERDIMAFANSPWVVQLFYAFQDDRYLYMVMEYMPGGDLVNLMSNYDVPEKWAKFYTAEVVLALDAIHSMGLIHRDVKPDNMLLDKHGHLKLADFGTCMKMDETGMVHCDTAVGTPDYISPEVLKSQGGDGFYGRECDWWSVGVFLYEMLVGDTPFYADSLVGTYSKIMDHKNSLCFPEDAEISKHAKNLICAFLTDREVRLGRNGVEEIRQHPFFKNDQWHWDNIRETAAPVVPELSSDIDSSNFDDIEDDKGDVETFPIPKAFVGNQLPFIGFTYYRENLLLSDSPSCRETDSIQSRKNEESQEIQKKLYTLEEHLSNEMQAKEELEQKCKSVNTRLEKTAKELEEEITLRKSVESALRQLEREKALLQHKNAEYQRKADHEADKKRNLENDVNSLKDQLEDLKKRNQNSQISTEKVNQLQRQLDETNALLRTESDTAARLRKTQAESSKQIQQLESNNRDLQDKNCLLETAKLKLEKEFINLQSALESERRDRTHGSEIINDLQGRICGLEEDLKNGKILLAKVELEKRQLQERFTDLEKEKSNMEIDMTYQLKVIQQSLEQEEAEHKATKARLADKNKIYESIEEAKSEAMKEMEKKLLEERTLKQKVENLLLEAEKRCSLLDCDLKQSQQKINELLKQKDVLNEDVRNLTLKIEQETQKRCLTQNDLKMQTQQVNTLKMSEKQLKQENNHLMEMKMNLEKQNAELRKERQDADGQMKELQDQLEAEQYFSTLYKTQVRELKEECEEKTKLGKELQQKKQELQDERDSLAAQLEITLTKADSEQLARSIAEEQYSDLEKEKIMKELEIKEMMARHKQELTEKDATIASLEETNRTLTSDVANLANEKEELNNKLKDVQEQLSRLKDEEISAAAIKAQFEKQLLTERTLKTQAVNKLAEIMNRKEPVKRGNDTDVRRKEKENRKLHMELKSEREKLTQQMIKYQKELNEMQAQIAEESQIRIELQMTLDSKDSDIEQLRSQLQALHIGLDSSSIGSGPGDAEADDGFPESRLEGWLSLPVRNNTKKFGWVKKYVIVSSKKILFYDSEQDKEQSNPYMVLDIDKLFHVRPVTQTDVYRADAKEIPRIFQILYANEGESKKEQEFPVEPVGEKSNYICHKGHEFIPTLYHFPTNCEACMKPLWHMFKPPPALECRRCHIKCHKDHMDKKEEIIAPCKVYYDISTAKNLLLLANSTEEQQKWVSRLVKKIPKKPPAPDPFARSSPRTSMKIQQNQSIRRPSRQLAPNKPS
# ASSAY CONTEXT: at 1 µM
# Description: GSK_PKIS: ROCK2 mean inhibition at 1 uM [Nanosyn]
REPORTED ENDPOINT: inhibition (%)
// return numeric value only (unit: %, not printed)

# MOLECULE, ASSAYED SYSTEM, UNIT OF MEASURE, inhibition
data = [
    ("Cc1nnc(-c2ccc(C)c(-c3ccc(C(=O)Nc4cccc(C#N)c4)cc3)c2)o1", "Rho-associated protein kinase 2 (Homo sapiens) (UniProt O75116)", "%", 3.81),
    ("Cc1ccc(C(=O)NC2CCCCC2)cc1-c1ccc(C(=O)NCC2CC2)cc1", "Rho-associated protein kinase 2 (Homo sapiens) (UniProt O75116)", "%", 1.7),
    ("CN1CCC(C(=O)Nc2n[nH]c3nnc(-c4ccccc4)cc23)CC1", "Rho-associated protein kinase 2 (Homo sapiens) (UniProt O75116)", "%", 7.43),
    ("O=C(Nc1n[nH]c2nc(-c3ccco3)c(Br)cc12)C1CC1", "Rho-associated protein kinase 2 (Homo sapiens) (UniProt O75116)", "%", -0.88),
    ("NCc1ccc(-c2nc(-c3ccc(Cl)c(O)c3)c(-c3ccncc3)[nH]2)cc1", "Rho-associated protein kinase 2 (Homo sapiens) (UniProt O75116)", "%", 0.95),
]

Inquiry: Using the record for `Fc1cccc(COc2ccc(Nc3ncnc4sc(-c5cccs5)cc34)cc2Cl)c1` , report its inhibition.
Reply text: 1.7

Inquiry: Using the record for `O=C1Nc2ccc(C(=O)c3ccco3)cc2C1=Cc1cc(Cl)c(O)c(Cl)c1` , report its inhibition.
Reply text: 12.1

Inquiry: Reported inhibition, molecule `O=C1NC(=O)C(c2cccc(Cl)c2)=C1Nc1ccc(O)c(Cl)c1` : ____
Reply text: -2.05

Inquiry: Which inhibition value is on record for `O=C1NC(=O)C(N2CCc3ccccc32)=C1c1ccc(Cl)cc1` ?
Reply text: 1.72

Inquiry: Sample `Nc1nc(-c2ccccn2)c(-c2ccc3ncccc3n2)s1` — what was its inhibition?
Reply text: 6.38

Inquiry: Look at this molecule and give its reported inhibition. CC1=C(C(=O)Nc2ccc3[nH]ncc3c2)C(c2ccc(F)cc2)NC(=O)N1 (configuration not stated)
Reply text: 74.5

Inquiry: What inhibition value was documented for this molecule, `CCn1c(-c2nonc2N)nc2c(C#CC(C)(C)O)nc(OC[C@@H](N)c3ccccc3)cc21` ?
Reply text: 45.9

Inquiry: Name the reported inhibition value associated with the molecule `COc1ccc(COc2ccc(Cc3cnc(N)nc3N)cc2OC)cc1`
Reply text: -1.22

Inquiry: Looking for the measured inhibition of `COc1cc2ncn(-c3cc(O[C@@H](C)c4ccccc4Cl)c(C(N)=O)s3)c2cc1OC` , can you help?
Reply text: 5.4
